Experiment: NCI Yeast Anticancer Drug Screen. Data for the cln2 rad14 strain (AID 165)
Conditions: S. cerevisiae cln2 rad14 strain, at 5.0 µM (retest, dose inferred, filed as 0.5)
About 79,000 compounds went through this panel and 15% of them were active in at least one assay; those are over-represented in the sample as a whole. Activity calls are given as the source filed them. Rule as the data show it: active = growth inhibition above about 70%; inactive = the rest.
Classes used: true (active), false (inactive)

[
  {
    "compound": "Clc1ccccc1CN1COc2c(cc(Cl)c3cccnc23)C1",
    "class-assignment": "false"
  },
  {
    "compound": "CCOC(=O)Cn1c(=O)c2nc(SC)sc2n(-c2ccc(C)cc2)c1=S",
    "class-assignment": "false"
  },
  {
    "compound": "O=C(CCC1OCCO1)Nc1cc(NCc2ccccc2)ccc1OCc1ccccc1",
    "class-assignment": "false"
  },
  {
    "compound": "C=CNC(=O)Oc1ccccc1",
    "class-assignment": "false"
  },
  {
    "compound": "CCOC(=O)C(=O)N1C(C)=C(C(=O)OCC)CC(C(=O)OCC)=C1C",
    "class-assignment": "false"
  },
  {
    "compound": "CCOC(=O)C(Cc1cc(I)c(Oc2ccc(OC)cc2)c(I)c1)NC(C)=O (stereo not drawn)",
    "class-assignment": "false"
  },
  {
    "compound": "CCN(CC)CCNc1ccc2ncn3c4c(OC)ccc(=O)c4c(O)c1c23",
    "class-assignment": "false"
  },
  {
    "compound": "COc1ccc(Nc2nc3ccccc3s2)cc1",
    "class-assignment": "false"
  },
  {
    "compound": "O=c1[nH][nH]c(=O)c2c1nc(SCc1ccccc1)n2Cc1ccccc1",
    "class-assignment": "false"
  },
  {
    "compound": "COc1ccc(Cc2ccc3c(C)cc(Cl)nc3c2)cc1",
    "class-assignment": "false"
  },
  {
    "compound": "COc1ccc(CN2COc3c(cc(Cl)c4cccnc34)C2)cc1",
    "class-assignment": "false"
  },
  {
    "compound": "CC(=O)/C(=C\\c1ccc(N(C)C)cc1)C(C)=[N+](C)C(=O)c1c(/[N+](C)=C(C)\\C(=C\\c2ccc(N(C)C)cc2)C(C)=O)ncn1C",
    "class-assignment": "false"
  },
  {
    "compound": "O=c1ncccn1[C@@H]1O[C@H](CO)[C@H](O)C1O (stereo partly drawn)",
    "class-assignment": "false"
  },
  {
    "compound": "Oc1c(Cl)cc(CN(Cc2cc(Cl)c(O)c(Cl)c2)C2CCCCC2)cc1Cl",
    "class-assignment": "false"
  },
  {
    "compound": "CCCCCCC[n+]1ccc(C(=O)c2ccccc2)cc1",
    "class-assignment": "true"
  },
  {
    "compound": "Cc1ccc(N2C(=O)CSC2=S)cc1Br",
    "class-assignment": "false"
  },
  {
    "compound": "COc1ccc(C2C3C(=O)OCCOC(=O)C3C2c2ccc(OC)c(OC)c2)cc1OC (stereo not drawn)",
    "class-assignment": "false"
  },
  {
    "compound": "CN(C)c1ccc(/C=C/c2nc3ccccc3[nH]2)cc1",
    "class-assignment": "false"
  },
  {
    "compound": "CC(=O)CCC(Br)(CCC(Br)(CCC(C)=O)[N+](=O)[O-])[N+](=O)[O-] (stereo not drawn)",
    "class-assignment": "false"
  },
  {
    "compound": "CCCCOC(=O)c1nc(N(CC2CCCCC2)C(=O)NC)sc1NC(=O)NC",
    "class-assignment": "false"
  },
  {
    "compound": "CC(C)c1ccc2c(c1)CCC1C(C)(CNC(=O)S)CCCC21C.[Zn+2] (stereo not drawn)",
    "class-assignment": "false"
  },
  {
    "compound": "Nc1ccc(S(=O)(=O)Nc2nc3ccccc3nc2N2CCCCC2)cc1",
    "class-assignment": "false"
  },
  {
    "compound": "N#CC1Sc2ccccc2N1C(=O)Oc1ccccc1 (stereo not drawn)",
    "class-assignment": "false"
  }
]
